Collected melting point values appear next to each entry.

[
  {
    "sample_smiles": "C#CCCOc1ccc(C=O)cc1OC",
    "melting point": "101 to 102 °C"
  },
  {
    "sample_smiles": "COc1ccc(C(=O)N2CCN(c3ccc(N)c(C=CC(=O)O)c3)CC2)cc1OC",
    "melting point": "168 to 170 °C"
  },
  {
    "sample_smiles": "CN(Cc1cc2c3c(c1)c(=O)c(C(=O)NCc1ccc(Cl)cc1)cn3CC(=O)N2C)C[C@H](O)c1cccnc1",
    "melting point": "125 to 127 °C"
  },
  {
    "sample_smiles": "O=C(O)c1cc(=O)cc(-c2cccc3ccccc23)o1",
    "melting point": "248 to 249 °C"
  },
  {
    "sample_smiles": "CN1C(=O)CC[C@]2(C)c3ccc(-c4ccccc4F)cc3CC[C@@H]12",
    "melting point": "142 to 150 °C"
  }
]

---

Collected melting point values appear next to each entry.

[
  {
    "compound": "Cc1ccc2c(N3CCN(CCc4cccc(N5CCNC5=O)c4)CC3)cccc2n1",
    "melting point": "164 °C"
  },
  {
    "compound": "COC(=O)c1cc2cc(OC(F)(F)F)ccc2[nH]1",
    "melting point": "129 °C"
  },
  {
    "compound": "Cc1cc(Cl)cc(COc2cccc(OCc3ccc4ccccc4n3)c2)c1OCc1nnn[nH]1",
    "melting point": "181 to 184 °C"
  },
  {
    "compound": "O=C(NCCCCc1cccnc1)c1ccc(-c2cccc(O)c2)cc1",
    "melting point": "150 to 152 °C"
  },
  {
    "compound": "Nc1nc2ccccc2n1-c1cccc(-c2cccs2)c1",
    "melting point": "142 to 144 °C"
  },
  {
    "compound": "COc1ccc(CC(SC)C(N)=O)cc1C(=O)NCc1ccc(C(F)(F)F)cc1 (centres undefined)",
    "melting point": "152 to 154 °C"
  },
  {
    "compound": "O=C(O)CS(=O)(=O)c1ccc2c(-c3ccc(Cl)cc3)noc2c1",
    "melting point": "201 to 203 °C"
  },
  {
    "compound": "Nc1ncnc2c1ncn2[C@H]1C[C@@H](CO)C1",
    "melting point": "85 to 88 °C"
  },
  {
    "compound": "CCCCCCSCCSc1nc2nc(C)cc(O)n2n1",
    "melting point": "126 °C"
  },
  {
    "compound": "Cc1ccc(S(=O)(=O)NC(=O)C(Cl)Cc2cc(-n3nc(C)n(C(F)F)c3=O)c(F)cc2Cl)cc1 (centres undefined)",
    "melting point": "267 to 269 °C"
  },
  {
    "compound": "NNC(=O)CCCCC(=O)N(NC(=O)c1ccccc1O)C(=O)c1ccccc1O",
    "melting point": "252 °C"
  },
  {
    "compound": "CC(=O)NCC=C1CCc2ccc3nn(C)cc3c21",
    "melting point": "200 to 202 °C"
  },
  {
    "compound": "Cc1cc(C(=O)NCc2ccc(Br)cc2F)c(OCC(=O)O)cc1F",
    "melting point": "169 °C"
  },
  {
    "compound": "CC(Oc1ccc2c(=O)c(-c3cccc(O)c3)coc2c1)C(=O)O (centres undefined)",
    "melting point": "218 to 219 °C"
  },
  {
    "compound": "CC(C)Cc1c[nH]c(-c2ccnc(NC(=O)c3ccccc3)c2)n1",
    "melting point": "103 to 105 °C"
  },
  {
    "compound": "O=CN(N=Cc1cccs1)c1ccc(Cl)cc1",
    "melting point": "103 to 105 °C"
  },
  {
    "compound": "NC(=O)c1c(Cl)c(-c2ccccc2)n2c1CN(S(=O)(=O)c1cccs1)CC2",
    "melting point": "240 to 242 °C"
  },
  {
    "compound": "COC(=O)c1cc2c(cc1O)CCCC2",
    "melting point": "41 to 42 °C"
  },
  {
    "compound": "Cc1ccc(-n2cccc2-c2ccc(S(C)(=O)=O)cc2)cc1",
    "melting point": "112 to 114 °C"
  },
  {
    "compound": "CC(C)Cc1ccc(CCc2cc3c(s2)NC(=S)C(C)N=C3c2ccccc2Cl)cc1 (centres undefined)",
    "melting point": "188 to 191 °C"
  },
  {
    "compound": "O=C1CSc2cccc(F)c2N1",
    "melting point": "190 to 191 °C"
  },
  {
    "compound": "COc1cc([N+](=O)[O-])c2nccc(C)c2c1OCCCCCc1cccs1",
    "melting point": "51 to 54 °C"
  },
  {
    "compound": "OCC(CO)c1cccc2ccccc12",
    "melting point": "58 to 60 °C"
  },
  {
    "compound": "COc1cc(C2c3cc4c(cc3C(NC3=CC(=O)N(CCCCCC(=O)O)C3=O)C3COC(=O)C23)OCO4)cc(OC)c1O (centres undefined)",
    "melting point": "150 to 152 °C"
  },
  {
    "compound": "CCOC(=O)c1cccc(-n2c(C)nc3cnccc32)c1",
    "melting point": "120 to 121 °C"
  },
  {
    "compound": "COc1ccccc1CNC(=O)c1ccc2nc(NCc3ccccc3OC)ccc2c1",
    "melting point": "108 °C"
  },
  {
    "compound": "O=C1[C@H]2CCC[C@H]2Nc2ccc(Cl)cc2N1Cc1ccccc1 (relative stereo)",
    "melting point": "160 to 163 °C"
  },
  {
    "compound": "COc1cc2c(cc1OC)/C(=N/OCc1ccc([N+](=O)[O-])cc1)CCC2",
    "melting point": "124 to 127 °C"
  },
  {
    "compound": "CC(C)(CCn1ccnc1)NCC(O)c1ccc(OCc2ccccc2)c(NC(N)=O)c1 (centres undefined)",
    "melting point": "142 to 143 °C"
  },
  {
    "compound": "CCOP(=O)(OCC)C(F)(F)c1ccc(CN(Cc2ccc(C(F)(F)P(=O)(OCC)OCC)cc2)C(=O)c2ccccc2)cc1",
    "melting point": "87 to 89 °C"
  },
  {
    "compound": "CCOC(=O)c1cn2c3c(cccc3c1=O)CC2(C)C",
    "melting point": "117 to 119 °C"
  },
  {
    "compound": "CNc1nc2ccn(Cc3ccc(F)cc3)cc-2n1",
    "melting point": "210 °C"
  },
  {
    "compound": "Cc1ccc2c(c1)CC(=S)N2C",
    "melting point": "143 to 145 °C"
  },
  {
    "compound": "C[Si](C)(C)C=Cc1cn(C2OC(CO)C(O)C2F)c(=O)[nH]c1=O (centres undefined)",
    "melting point": "164 to 165 °C"
  },
  {
    "compound": "CCOC(=O)c1nc(-c2ccccc2)nc2c1c1ccc(Cl)cc1n2C",
    "melting point": "139 to 140 °C"
  },
  {
    "compound": "CCn1c(=O)c2c(nc(/C=C/c3ccc(OCCCCN)cc3)n2C)n(CC)c1=O",
    "melting point": "212 to 214 °C"
  },
  {
    "compound": "O=C(NC1CCCCC1)n1cc(F)c(=O)[nH]c1=O",
    "melting point": "276 to 278 °C"
  },
  {
    "compound": "CCOC(=O)C=Cc1cc(C=CC(=O)OCC)cc(Cc2cccnc2)c1",
    "melting point": "94 to 96 °C"
  },
  {
    "compound": "CC1CC(=O)NN=C1c1ccc(N2CCNCC2)c(F)c1 (centres undefined)",
    "melting point": "172 to 174 °C"
  }
]

---

Collected melting point values appear next to each entry.

[
  {
    "molecule": "COc1ccc(C(C)c2cc(O)ccc2OC)cc1 (stereo not drawn)",
    "melting point": "81 to 83 °C"
  },
  {
    "molecule": "O=C1c2ccccc2CN1C1CCN(c2ccc(C(O)c3ccccc3)cc2)CC1 (stereo not drawn)",
    "melting point": "211 to 214 °C"
  },
  {
    "molecule": "CCCCN(c1nc(NCC(=O)OCC)nc(N(CCCC)C2CC(C)(C)NC(C)(C)C2)n1)C1CC(C)(C)NC(C)(C)C1",
    "melting point": "40 °C"
  }
]

---

[
  {
    "molecule": "O=CC1c2cccc(Cl)c2C(C=O)c2cccc(Cl)c21 (stereo not given)",
    "melting point": "160 to 172 °C"
  },
  {
    "molecule": "CC(C)(C)c1cc(CC#Cc2ccc(C(=O)O)cc2)cc(C(C)(C)C)c1O",
    "melting point": "198 to 199 °C"
  },
  {
    "molecule": "CCOC(=O)c1ccccc1N(CC(=O)N(C)c1ccccc1)C(=O)CNC(=O)Nc1cccc(C)c1",
    "melting point": "201 °C"
  },
  {
    "molecule": "Cc1cccc(Nc2nc(Cl)nc(Cl)n2)c1C",
    "melting point": "186 to 188 °C"
  },
  {
    "molecule": "CC(=O)N1c2ccc(-c3nnn[nH]3)cc2C(Nc2ccc(Cl)cc2)CC1C (stereo not given)",
    "melting point": "190 to 191 °C"
  },
  {
    "molecule": "COC(=O)c1ccc(-c2nc(COc3ccc(C=O)cc3OC)c(C)o2)cc1",
    "melting point": "185 to 186 °C"
  },
  {
    "molecule": "CC(=O)OC1CC2=CCC3C(CCC4(C)C(C(C)CCCC(C)C)CCC34)C2(C)CC1F (stereo not given)",
    "melting point": "116 to 119 °C"
  },
  {
    "molecule": "NC(=S)c1c[nH]cc1-c1cccc(Cl)c1Cl",
    "melting point": "128 to 132 °C"
  },
  {
    "molecule": "COC(=O)c1cccnc1NS(=O)(=O)NC(C)C",
    "melting point": "121 to 123 °C"
  },
  {
    "molecule": "Nc1ccc(Oc2c(Cl)cc(C(F)(F)F)cc2Cl)cc1",
    "melting point": "128 to 130 °C"
  },
  {
    "molecule": "O=C(O)C1=Cc2cc(Cl)ccc2N(Cc2ccc(C(F)(F)F)cc2)C1C(F)(F)F (stereo not given)",
    "melting point": "229 to 231 °C"
  },
  {
    "molecule": "O=C(NCC1CCCCC1)c1c(Cl)ccc2nc(CCCCc3nnn[nH]3)ccc12",
    "melting point": "90 to 93 °C"
  },
  {
    "molecule": "CCn1nccc1C(=O)Nc1cc(Oc2ccc3nc(NC(=O)C4CC4)cn3n2)ccc1F",
    "melting point": "209 °C"
  },
  {
    "molecule": "CCCCCCCCCCCCCCCCCCOc1cc(N)cc(OC(C)=O)c1",
    "melting point": "73 to 74 °C"
  },
  {
    "molecule": "CC(=O)Oc1cc(OCC(O)c2ccc3c(c2)C(C)(C)CCC3(C)C)ccc1C(=O)O (stereo not given)",
    "melting point": "119 to 120 °C"
  },
  {
    "molecule": "O=[N+]([O-])c1c(NCCO)cc(NCCO)cc1NCCO",
    "melting point": "200 °C"
  },
  {
    "molecule": "CCCc1nc(NN)nc(O)c1Cc1ccc(-c2ccccc2C#N)cc1",
    "melting point": "191 °C"
  },
  {
    "molecule": "CC(C#N)Oc1ccc(Oc2ccc(C(F)(F)F)cc2)cc1 (stereo not given)",
    "melting point": "53 to 56 °C"
  },
  {
    "molecule": "CCOC(=O)c1ccc(/C=C(\\C)c2cc3c(cc2OC)C(C)(C)CCC3(C)C)cc1",
    "melting point": "97 to 98 °C"
  },
  {
    "molecule": "O=C(O)CCCc1cc2nc(Cl)ccc2n1S(=O)(=O)c1cccc(-c2ccccc2)c1",
    "melting point": "147 to 149 °C"
  }
]
